This collection of values is drawn from patent US9499550B2.

Test system: HCV genotype 1b (Con1) replicon in HUH-7 cells
Test: HCV replicon luciferase reporter assay, genotype 1b
Type: cell-based
Settings: Hepatitis C virus, Huh-7, 72 h, HCV genotype 1b replicon luciferase, 3 days incubation, read-out: LE_1b (EC50, range)
pEC50: −log10 of the molar value.
PROPERTY NAME: pEC50

Exam item: Quick one: pEC50 of `CCOc1nnc(O[C@@H]2C[C@H]3C(=O)N[C@]4(C(=O)NS(=O)(=O)C5(C)CC5)C[C@H]4/C=C\CC[C@H](C)C[C@@H](CC)[C@H](NC(=O)OC(C)(C)C(C)(F)F)C(=O)N3C2)c2ccccc12` ?
Marked response: 6.99 to 8.32

Exam item: Ok, now `CCOc1cc2ccnc(O[C@@H]3C[C@H]4C(=O)N[C@]5(C(=O)NS(=O)(=O)C6CC6)C[C@H]5/C=C\CC[C@@H](C)C[C@@H](C)[C@H](NC(=O)OC(C)(C)C(F)(F)F)C(=O)N4C3)c2cc1F`
Marked response: 9.30 to 10.00

Exam item: Ok, now `C[C@@H]1CC/C=C\[C@@H]2C[C@@]2(C(=O)NS(=O)(=O)C2(C)CC2)NC(=O)[C@@H]2C[C@@H](Oc3nccc4c5c(ccc34)CCCO5)CN2C(=O)[C@@H](NC(=O)OC(C)(C)C(C)(F)F)[C@H](C)C1`
Marked response: 8.30 to 9.00

Exam item: Ok, now `CCOc1cnc(O[C@@H]2C[C@H]3C(=O)N[C@]4(C(=O)NS(=O)(=O)C5(C)CC5)C[C@H]4/C=C\CC[C@@H](C)C[C@@H](C)[C@H](NC(=O)OC(C)(C)C)C(=O)N3C2)c2cc(Cl)ccc12`
Marked response: > 8.26

* * *

System: HCV genotype 1b (Con1) replicon in HUH-7 cells
Assay: HCV replicon luciferase reporter assay, genotype 1b
Type: cell-based
Settings: Hepatitis C virus, Huh-7, 72 h, HCV genotype 1b replicon luciferase, 3 days incubation, read-out: LE_1b (EC50, range)
pEC50: −log10 of the molar value.
Provide the reported pEC50 of each item.

Exam item: Quick one: pEC50 of `COc1cc2c(OC)cnc(O[C@@H]3C[C@H]4C(=O)N[C@]5(C(=O)NS(=O)(=O)C6(CF)CC6)C[C@H]5/C=C\CC[C@@H](C)C[C@@H](C)[C@H](NC(=O)C(C)(C)C)C(=O)N4C3)c2cc1F` ?
Marked response: > 8.26

Exam item: Ok, now `COc1cc2ccnc(O[C@@H]3C[C@H]4C(=O)N[C@]5(C(=O)NS(=O)(=O)C6(F)CC6)C[C@H]5/C=C\CC[C@@H](C)C[C@@H](C)[C@H](NC(=O)OCC(C)(C)C)C(=O)N4C3)c2cc1F`
Marked response: > 8.26

* * *

Test system: HCV genotype 1b (Con1) replicon in HUH-7 cells
Test: HCV replicon luciferase reporter assay, genotype 1b
Type: cell-based
Settings: Hepatitis C virus, Huh-7, 72 h, HCV genotype 1b replicon luciferase, 3 days incubation, read-out: LE_1b (EC50, range)
pEC50: −log10 of the molar value.
PROPERTY NAME: pEC50

Exam item: Quick one: pEC50 of `[2H]C([2H])([2H])C(OC(=O)N[C@@H]1C(=O)N2C[C@H](Oc3nnc(OCC)c4ccccc34)C[C@H]2C(=O)N[C@]2(C(=O)NS(=O)(=O)C3CC3)C[C@H]2/C=C\CC[C@H](C)C[C@H]1C)(C([2H])([2H])[2H])C(F)(F)F` ?
Marked response: 6.99 to 8.32

Exam item: Ok, now `CCCOc1cnc(O[C@@H]2C[C@H]3C(=O)N[C@]4(C(=O)NS(=O)(=O)C5CC5)C[C@H]4/C=C\CC[C@H](C)C[C@@H](C)[C@H](NC(=O)NC(C)(C)C(F)(F)F)C(=O)N3C2)c2ccccc12`
Marked response: < 7.06

Exam item: Ok, now `CCOc1cnc(O[C@@H]2C[C@H]3C(=O)N[C@]4(C(=O)NS(=O)(=O)C5(C)CC5)C[C@H]4/C=C\CC[C@@H](C)C[C@@H](C)[C@H](NC(=O)Oc4ccccc4)C(=O)N3C2)c2ccccc12`
Marked response: > 8.26

Exam item: Ok, now `COc1cc2ccnc(O[C@@H]3C[C@H]4C(=O)N[C@]5(C(=O)NS(=O)(=O)C6(CF)CC6)C[C@H]5/C=C\CC[C@@H](C)C[C@@H](C)[C@H](NC(=O)C(C)(C)C)C(=O)N4C3)c2cc1F`
Marked response: > 8.26
